Target: Mitogen-activated protein kinase kinase kinase kinase 4 (Homo sapiens) (UniProt O95819)
Sequence (O95819 2-1239 limits assumed): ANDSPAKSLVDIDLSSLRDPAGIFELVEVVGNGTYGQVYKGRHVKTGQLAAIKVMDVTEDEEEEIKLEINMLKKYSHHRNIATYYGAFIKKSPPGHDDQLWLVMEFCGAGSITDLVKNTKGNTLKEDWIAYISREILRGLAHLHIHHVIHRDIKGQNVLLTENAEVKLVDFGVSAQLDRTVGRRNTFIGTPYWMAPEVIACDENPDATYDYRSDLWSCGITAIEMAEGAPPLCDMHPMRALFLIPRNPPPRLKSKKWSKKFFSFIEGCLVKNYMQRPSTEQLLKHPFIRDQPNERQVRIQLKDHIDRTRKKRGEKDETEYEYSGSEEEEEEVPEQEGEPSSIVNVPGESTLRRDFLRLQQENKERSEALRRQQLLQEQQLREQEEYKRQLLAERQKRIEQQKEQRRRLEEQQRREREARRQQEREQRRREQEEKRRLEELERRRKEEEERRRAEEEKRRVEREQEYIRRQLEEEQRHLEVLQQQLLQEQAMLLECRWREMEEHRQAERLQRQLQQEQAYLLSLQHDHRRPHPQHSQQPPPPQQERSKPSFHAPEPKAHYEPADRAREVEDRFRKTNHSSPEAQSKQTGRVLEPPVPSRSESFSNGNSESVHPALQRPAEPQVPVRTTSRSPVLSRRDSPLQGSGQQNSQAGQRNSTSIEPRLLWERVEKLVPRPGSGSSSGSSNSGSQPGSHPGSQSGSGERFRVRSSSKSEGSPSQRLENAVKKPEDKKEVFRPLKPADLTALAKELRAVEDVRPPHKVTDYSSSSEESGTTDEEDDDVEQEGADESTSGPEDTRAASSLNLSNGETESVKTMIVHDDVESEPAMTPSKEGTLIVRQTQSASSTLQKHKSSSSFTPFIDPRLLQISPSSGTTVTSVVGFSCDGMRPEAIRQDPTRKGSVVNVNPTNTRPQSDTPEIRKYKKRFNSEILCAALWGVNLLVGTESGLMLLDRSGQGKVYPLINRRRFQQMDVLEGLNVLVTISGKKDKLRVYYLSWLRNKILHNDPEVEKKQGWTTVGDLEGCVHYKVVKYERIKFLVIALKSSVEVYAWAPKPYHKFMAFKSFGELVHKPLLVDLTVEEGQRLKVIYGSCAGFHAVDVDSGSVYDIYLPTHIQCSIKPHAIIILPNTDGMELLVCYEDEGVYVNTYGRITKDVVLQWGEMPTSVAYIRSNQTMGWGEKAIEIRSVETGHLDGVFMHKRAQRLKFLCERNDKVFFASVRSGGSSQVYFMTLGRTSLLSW
Conditions: at 0.1 µM
Description: GSK_PKIS: MAP4K4 mean inhibition at 0.1 uM [Nanosyn]
MEASURED ATTRIBUTE: inhibition (%)

compound="CC1=C(C(=O)Nc2ccc3[nH]ncc3c2)C(c2ccc(F)cc2)N=C(c2ccc(C(F)(F)F)nc2)N1 (centres undefined)" target_of_assay="Mitogen-activated protein kinase kinase kinase kinase 4 (Homo sapiens) (UniProt O95819)" number=2.89
compound=CS(=O)(=O)CCNCc1ccoc1-c1ccc2ncnc(Nc3ccc(OCc4ccccc4)cc3)c2c1 target_of_assay="Mitogen-activated protein kinase kinase kinase kinase 4 (Homo sapiens) (UniProt O95819)" number=0.34
compound=COc1cc(Nc2ncc(-c3ccccc3)o2)cc(OC)c1 target_of_assay="Mitogen-activated protein kinase kinase kinase kinase 4 (Homo sapiens) (UniProt O95819)" number=7.08
compound=CNC(=O)c1sc(-n2cnc3cc(OC)c(OC)cc32)cc1OCc1ccccc1C(F)(F)F target_of_assay="Mitogen-activated protein kinase kinase kinase kinase 4 (Homo sapiens) (UniProt O95819)" number=8.53
compound=CCCNc1cccc(-n2ncc3c(N/N=C/c4ccncc4)ncnc32)c1 target_of_assay="Mitogen-activated protein kinase kinase kinase kinase 4 (Homo sapiens) (UniProt O95819)" number=9.69
compound=Cc1c2ccc(N(C)c3ccnc(Nc4cccc(S(N)(=O)=O)c4)n3)cc2nn1C target_of_assay="Mitogen-activated protein kinase kinase kinase kinase 4 (Homo sapiens) (UniProt O95819)" number=11.1
compound=COc1cc(N2CCN(C(C)C)CC2)ccc1Nc1nc(Nc2cccc3ncccc23)c2cc[nH]c2n1 target_of_assay="Mitogen-activated protein kinase kinase kinase kinase 4 (Homo sapiens) (UniProt O95819)" number=1.88
compound=CS(=O)(=O)Nc1ccc(-c2ccc3c(NC(=O)C4CC4)n[nH]c3c2)cc1 target_of_assay="Mitogen-activated protein kinase kinase kinase kinase 4 (Homo sapiens) (UniProt O95819)" number=6.29
compound=N#Cc1ccc2c(-c3ccnc(NC4CC4)n3)c(-c3ccc(F)cc3)nn2c1 target_of_assay="Mitogen-activated protein kinase kinase kinase kinase 4 (Homo sapiens) (UniProt O95819)" number=5.83
compound=CN1CCC(n2cnc(-c3ccc(F)cc3)c2-c2ccnc(NCCO)n2)CC1 target_of_assay="Mitogen-activated protein kinase kinase kinase kinase 4 (Homo sapiens) (UniProt O95819)" number=7.52
compound=NC(=O)c1ccc2c(-c3ccnc(NCCCO)n3)c(-c3ccc(F)cc3)nn2c1 target_of_assay="Mitogen-activated protein kinase kinase kinase kinase 4 (Homo sapiens) (UniProt O95819)" number=9.85
compound=CCS(=O)(=O)c1ccc(OC)c(Nc2ncc(-c3cccc(C(C)=O)c3)o2)c1 target_of_assay="Mitogen-activated protein kinase kinase kinase kinase 4 (Homo sapiens) (UniProt O95819)" number=3.37
compound=COc1ccccc1-c1cc(/C=C2\C(=O)Nc3ncc(Br)cc32)cc(Br)c1O target_of_assay="Mitogen-activated protein kinase kinase kinase kinase 4 (Homo sapiens) (UniProt O95819)" number=5.7
compound=COc1ccc(-c2nn3ncccc3c2-c2ccnc(Nc3ccc(F)c(F)c3)n2)cc1 target_of_assay="Mitogen-activated protein kinase kinase kinase kinase 4 (Homo sapiens) (UniProt O95819)" number=8.56
compound=c1cnn2ncc(-c3ccnc(NCCCN4CCOCC4)n3)c2c1 target_of_assay="Mitogen-activated protein kinase kinase kinase kinase 4 (Homo sapiens) (UniProt O95819)" number=4.7
compound=CC(C)c1ccc(-c2cc(-c3c[nH]nc3-c3ccccn3)ccn2)cc1 target_of_assay="Mitogen-activated protein kinase kinase kinase kinase 4 (Homo sapiens) (UniProt O95819)" number=10.9
compound=COc1ccc(Nc2ncc(-c3ccccc3)o2)cc1OC target_of_assay="Mitogen-activated protein kinase kinase kinase kinase 4 (Homo sapiens) (UniProt O95819)" number=8.63
compound=COc1c(C(N)=O)cc(-c2ccc(Cl)cc2)cc1-c1ccc(S(N)(=O)=O)cc1 target_of_assay="Mitogen-activated protein kinase kinase kinase kinase 4 (Homo sapiens) (UniProt O95819)" number=6.38
compound="CC1=C(C(=O)Nc2ccc3[nH]nc(C)c3c2)C(c2ccc(C(F)(F)F)cc2)CC(=O)N1 (centres undefined)" target_of_assay="Mitogen-activated protein kinase kinase kinase kinase 4 (Homo sapiens) (UniProt O95819)" number=4.23
compound=CCN1CCC(C(=O)Nc2n[nH]c3nnc(-c4cccc(F)c4F)cc23)CC1 target_of_assay="Mitogen-activated protein kinase kinase kinase kinase 4 (Homo sapiens) (UniProt O95819)" number=3.47
compound=O=C(O[C@H]1CN[C@H](C#Cc2cc3ncnc(Nc4ccc5c(ccn5Cc5cc(F)ccc5F)c4)c3s2)C1)N1CCOCC1 target_of_assay="Mitogen-activated protein kinase kinase kinase kinase 4 (Homo sapiens) (UniProt O95819)" number=5.04
compound=CS(=O)(=O)CCNCc1ccc(-c2ccc3ncnc(Nc4ccc(OCc5cccc(C(F)(F)F)c5)cc4)c3c2)o1 target_of_assay="Mitogen-activated protein kinase kinase kinase kinase 4 (Homo sapiens) (UniProt O95819)" number=2.66
compound=CC1(C)CC(n2cnc(-c3ccc(F)cc3)c2-c2ccnc(N)n2)CC(C)(C)N1 target_of_assay="Mitogen-activated protein kinase kinase kinase kinase 4 (Homo sapiens) (UniProt O95819)" number=2.07
compound=CCn1c(-c2nonc2N)nc2cncc(C(=O)NCCNC)c21 target_of_assay="Mitogen-activated protein kinase kinase kinase kinase 4 (Homo sapiens) (UniProt O95819)" number=4.46
compound=Cn1c(-c2nonc2N)nc2cnccc21 target_of_assay="Mitogen-activated protein kinase kinase kinase kinase 4 (Homo sapiens) (UniProt O95819)" number=6.14
compound=O=C(Nc1n[nH]c2nnc(-c3cccnc3)cc12)C1CC1 target_of_assay="Mitogen-activated protein kinase kinase kinase kinase 4 (Homo sapiens) (UniProt O95819)" number=3.78
compound=CCS(=O)(=O)c1ccc(OC)c(Nc2ncc(-c3cccc(F)c3)o2)c1 target_of_assay="Mitogen-activated protein kinase kinase kinase kinase 4 (Homo sapiens) (UniProt O95819)" number=6.47
compound=CN(c1ccc(NC(=O)NCCN2CCOCC2)cc1)c1ccnc(Nc2ccc(CS(C)(=O)=O)cc2)n1 target_of_assay="Mitogen-activated protein kinase kinase kinase kinase 4 (Homo sapiens) (UniProt O95819)" number=4.19
compound=NS(=O)(=O)c1ccc(N/N=C2\C(=O)Nc3ccc(C(=O)NCc4ccncc4)cc32)cc1 target_of_assay="Mitogen-activated protein kinase kinase kinase kinase 4 (Homo sapiens) (UniProt O95819)" number=11.2
compound=Fc1cccc(COc2ccc(Nc3ncncc3C#Cc3ccccc3)cc2Cl)c1 target_of_assay="Mitogen-activated protein kinase kinase kinase kinase 4 (Homo sapiens) (UniProt O95819)" number=6.19
compound=NS(=O)(=O)c1ccc(N/N=C2\C(=O)Nc3cccc(CCc4ccncc4)c32)cc1 target_of_assay="Mitogen-activated protein kinase kinase kinase kinase 4 (Homo sapiens) (UniProt O95819)" number=4.39
compound=Cc1cc(O)cc(C)c1/C=C/c1cncc(C(N)=O)c1 target_of_assay="Mitogen-activated protein kinase kinase kinase kinase 4 (Homo sapiens) (UniProt O95819)" number=4.83
compound=O=C(O[C@H]1CN[C@H](C#Cc2cc3ncnc(Nc4ccc5c(cnn5Cc5ccccc5)c4)c3s2)C1)N1CCOCC1 target_of_assay="Mitogen-activated protein kinase kinase kinase kinase 4 (Homo sapiens) (UniProt O95819)" number=-0.91
compound=Fc1ccc(Nc2nccc(-c3c(-c4ccc(C(F)(F)F)cc4)nn4ncccc34)n2)cc1F target_of_assay="Mitogen-activated protein kinase kinase kinase kinase 4 (Homo sapiens) (UniProt O95819)" number=5.44

These data points were gathered from ChEMBL document CHEMBL1961873.
